The origin of these recorded values is ChEMBL document CHEMBL1126131.

target: Estrogen receptor (Mus musculus) (UniProt O08537+P19785); assay: Anti-uterotrophic effect in mice as uterine weight(mg) relative to body weight(g) at 10 ug dose; type: functional
Sequence (O08537 whole entry, looked up): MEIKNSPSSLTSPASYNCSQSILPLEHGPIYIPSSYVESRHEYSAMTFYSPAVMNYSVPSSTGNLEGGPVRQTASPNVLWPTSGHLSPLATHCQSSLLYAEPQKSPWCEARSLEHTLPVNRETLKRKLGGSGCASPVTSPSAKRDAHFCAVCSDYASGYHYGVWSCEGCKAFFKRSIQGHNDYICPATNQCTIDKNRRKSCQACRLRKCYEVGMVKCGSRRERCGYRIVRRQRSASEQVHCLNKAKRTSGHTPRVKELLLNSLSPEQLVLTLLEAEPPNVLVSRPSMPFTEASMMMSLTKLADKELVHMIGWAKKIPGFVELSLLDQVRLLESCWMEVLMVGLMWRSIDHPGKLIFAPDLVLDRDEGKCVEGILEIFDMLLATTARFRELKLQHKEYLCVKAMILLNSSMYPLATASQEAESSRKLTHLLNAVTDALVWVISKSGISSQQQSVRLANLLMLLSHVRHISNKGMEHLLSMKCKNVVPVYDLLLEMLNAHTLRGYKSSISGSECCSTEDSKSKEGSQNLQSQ
Sequence (P19785 whole entry, looked up): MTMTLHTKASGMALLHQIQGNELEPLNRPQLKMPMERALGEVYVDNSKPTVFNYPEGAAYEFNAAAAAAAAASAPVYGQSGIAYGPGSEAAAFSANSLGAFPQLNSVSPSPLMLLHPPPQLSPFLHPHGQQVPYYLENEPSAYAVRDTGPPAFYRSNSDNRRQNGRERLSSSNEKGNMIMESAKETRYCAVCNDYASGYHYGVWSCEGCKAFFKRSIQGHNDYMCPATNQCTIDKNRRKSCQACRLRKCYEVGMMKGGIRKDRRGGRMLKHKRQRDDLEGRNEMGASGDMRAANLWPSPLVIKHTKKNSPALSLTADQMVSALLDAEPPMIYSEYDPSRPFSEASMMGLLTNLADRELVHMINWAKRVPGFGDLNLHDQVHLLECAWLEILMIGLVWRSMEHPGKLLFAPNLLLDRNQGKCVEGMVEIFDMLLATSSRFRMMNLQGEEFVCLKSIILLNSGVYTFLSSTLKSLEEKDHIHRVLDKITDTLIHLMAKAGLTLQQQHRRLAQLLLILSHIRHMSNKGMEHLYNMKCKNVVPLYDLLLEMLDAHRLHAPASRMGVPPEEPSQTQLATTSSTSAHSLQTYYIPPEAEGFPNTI
MEASUREMENT_TYPE: Relative uterus weight
Please state the value as a number alone, without comment.

// known answers, use as guide
CCC1Cc2cc(OC(C)=O)ccc2-c2c(C=O)c3cc(OC(C)=O)ccc3n21 (centres undefined) = 46.1
CCCCC1Cc2cc(OC(C)=O)ccc2-c2c(C=O)c3cc(OC(C)=O)ccc3n21 (centres undefined) = 48.2
CCCCC1Cc2cc(OC(C)=O)ccc2-c2c(C=O)c3ccc(OC(C)=O)cc3n21 (centres undefined) = 46.7

Can you look up the measured Relative uterus weight of CC(=O)Oc1ccc2c(c1)CC(C)n1c-2c(C=O)c2cc(OC(C)=O)ccc21 (centres undefined) for me? 42.8

* * *

molecular target: Estrogen receptor (Mus musculus) (UniProt O08537+P19785); assay: Anti-uterotrophic effect in mice as uterine weight(mg) relative to body weight(g) at 250 ug dose; type: functional
Response field label: string, one of label 1 (Relative uterus weight strictly below 40) or label 0.

CCCC1Cc2cc(OC(C)=O)ccc2-c2c(C=O)c3ccc(OC(C)=O)cc3n21 (stereo unspecified) = label 1

Bench note: check whether CCCCCC1Cc2cc(OC(C)=O)ccc2-c2c(C=O)c3ccc(OC(C)=O)cc3n21 (stereo unspecified) shows Relative uterus weight below 40 label 0

Follow-up entry: CCCC1Cc2cc(OC(C)=O)ccc2-c2c(C=O)c3cc(OC(C)=O)ccc3n21 (stereo unspecified) label 1

# repeat for CCCCCC1Cc2cc(OC(C)=O)ccc2-c2c(C=O)c3cc(OC(C)=O)ccc3n21 (stereo unspecified) label 0

Another compound to check: CCC1Cc2cc(OC(C)=O)ccc2-c2c(C=O)c3cc(OC(C)=O)ccc3n21 (stereo unspecified) label 1
